test-target: Neutrophil elastase (Homo sapiens, UniProt P08246)
Sequence (P08246 whole entry): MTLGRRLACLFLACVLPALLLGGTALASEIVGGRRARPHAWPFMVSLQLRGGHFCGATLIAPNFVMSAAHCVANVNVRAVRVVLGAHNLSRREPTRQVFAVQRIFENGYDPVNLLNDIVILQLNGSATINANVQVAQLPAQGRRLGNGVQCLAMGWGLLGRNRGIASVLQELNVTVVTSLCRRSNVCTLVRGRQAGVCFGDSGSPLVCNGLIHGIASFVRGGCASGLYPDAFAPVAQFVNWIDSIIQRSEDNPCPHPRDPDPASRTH
assay-explanation: In vitro inhibitory activity against human neutrophil elastase (HNE)
attribute-measured: pIC50
One number for each entry, as −log10 of the molar value.

Some solved cases for reference:
[
  {
    "smiles-representation": "CCC[C@H]1C(=O)N(S(=O)(=O)c2ccc3ccccc3c2)[C@H]2CCN(C(=O)CCN3CCCCC3)[C@H]12.Cl",
    "value-observed": 6.86
  },
  {
    "smiles-representation": "C=CC[C@H]1C(=O)N(CCCCCC)[C@H]2CCN(C(=O)OCc3ccccc3)[C@H]12",
    "value-observed": 7.54
  },
  {
    "smiles-representation": "C=CC[C@H]1C(=O)N(C(=O)NCC)[C@H]2CCN(C(=O)OCc3ccccc3)[C@H]12",
    "value-observed": 7.51
  }
]

For every item in the list below, what is its measured pIC50?
1. CCC[C@H]1C(=O)N(S(C)(=O)=O)[C@H]2CCN(C(=O)CCN3CCCCC3)[C@H]12.Cl
2. C=CC[C@H]1C(=O)N(C(=O)OCC)[C@H]2CCN(C(=O)OCc3ccccc3)[C@H]12

# output
1: 6.85; 2: 8.70

###

Test system: Hamster
assay-explanation: Plasma clearance after iv administration at 3 mg/kg in hamster
Assay type: ADME, organism-based
Design: dose 3 mg/kg, route intravenous
assay-conditions: cricetinae, in vivo
attribute-measured: Clp (mL/min/kg)
Answers are plain numbers, in mL/min/kg.

# input Fill: Clp (Hamster) for this molecule CCC[C@H]1C(=O)N(S(C)(=O)=O)[C@H]2CCN(C(=O)CCN3CCCCC3)[C@H]12.Cl
# output 140

###

assay-explanation: Bioavailability after po administration of 10 mg/kg in hamster
Format: ADME, organism-based, Cricetulus griseus
assay-conditions: chinese hamster, in vivo
attribute-measured: bioavailability (%)
One number for each entry, in %.

# input Note bioavailability for the compound shown: CCC[C@H]1C(=O)N(S(C)(=O)=O)[C@H]2CCN(C(=O)CCN3CCCCC3)[C@H]12.Cl
# output 49

###

assay-explanation: Volume distribution after iv administration at 3 mg/kg in hamster
Assay type: ADME, organism-based
Parameters: dose 3 mg/kg, route intravenous
assay-conditions: cricetinae, in vivo
attribute-measured: Vd
Include the unit right after the number.

# input Note Vd for the molecule shown: CCC[C@H]1C(=O)N(S(C)(=O)=O)[C@H]2CCN(C(=O)CCN3CCCCC3)[C@H]12.Cl
# output 2.3 L/kg

###

assay-explanation: Solubility in water was evaluated.
Format: physicochemical
attribute-measured: solubility

[
  {
    "smiles-representation": "CCC[C@H]1C(=O)N(S(=O)(=O)c2ccc3ccccc3c2)[C@H]2CCN(C(=O)CCN3CCCCC3)[C@H]12.Cl",
    "value-observed": "> 1000 µg/mL"
  }
]

Could you now consider this next compound?
# input Note solubility for the compound shown: CCC[C@H]1C(=O)N(S(C)(=O)=O)[C@H]2CCN(C(=O)CCN3CCCCC3)[C@H]12.Cl
# output > 1000 µg/mL

###

test-target: Neutrophil elastase (Homo sapiens, UniProt P08246)
assay-explanation: In vitro inhibitory activity in human whole blood (HWB) elastase
Format: tissue-based
Residues, ends and D or L forms follow the SMILES beside them. *: point of attachment. CF3 = FC(F)(F)*; Moc = COC(=O)*
attribute-measured: IC50

# input Fill: IC50 (Neutrophil elastase (Homo sapiens, UniProt P08246)) for this compound COC(=O)N[C@H](C(=O)N1CCC[C@H]1C(=O)N[C@H](C(=O)C(F)(F)F)C(C)C)C(C)C (Moc-Val-Pro-Val-CF3)
# output > 10 nM

###

Tested on: Hamster
assay-explanation: Plasma clearance after iv administration at 4 mg/kg in hamster
Assay type: ADME, organism-based
Set-up: dose 4 mg/kg, route intravenous
assay-conditions: cricetinae, in vivo
attribute-measured: Clp (mL/min/kg)
Answers are plain numbers, in mL/min/kg.

# input Note Clp for the molecule shown: CCC[C@H]1C(=O)N(S(=O)(=O)c2ccc3ccccc3c2)[C@H]2CCN(C(=O)CCN3CCCCC3)[C@H]12.Cl
# output 200

###

assay-explanation: Half life after iv administration at 4 mg/kg in hamster
Format: ADME, organism-based
Design: dose 4 mg/kg, route intravenous
assay-conditions: cricetinae, in vivo
attribute-measured: half-life (min)
Give bare numbers, in min.

# input Note half-life for the compound shown: CCC[C@H]1C(=O)N(S(=O)(=O)c2ccc3ccccc3c2)[C@H]2CCN(C(=O)CCN3CCCCC3)[C@H]12.Cl
# output 30

###

assay-explanation: Half life after po administration of 10 mg/kg in hamster
Type: ADME, organism-based
Design: dose 10 mg/kg, route oral
assay-conditions: cricetinae, in vivo
attribute-measured: half-life (min)
One number for each entry, in min.

# input Note half-life for the compound shown: CCC[C@H]1C(=O)N(S(C)(=O)=O)[C@H]2CCN(C(=O)CCN3CCCCC3)[C@H]12.Cl
# output 30

###

assay-explanation: Volume distribution after iv administration at 4 mg/kg in hamster
Format: ADME, organism-based
Parameters: dose 4 mg/kg, route intravenous
assay-conditions: cricetinae, in vivo
attribute-measured: Vd

# input Note Vd for the compound shown: CCC[C@H]1C(=O)N(S(=O)(=O)c2ccc3ccccc3c2)[C@H]2CCN(C(=O)CCN3CCCCC3)[C@H]12.Cl
# output 8.1 L/kg

###

assay-explanation: Bioavailability after po administration at 4 mg/kg in hamster
Type: ADME, organism-based, Cricetulus griseus
assay-conditions: chinese hamster, in vivo
attribute-measured: bioavailability (%)
Answers are plain numbers, in %.

# input Note bioavailability for the compound shown: CCC[C@H]1C(=O)N(S(=O)(=O)c2ccc3ccccc3c2)[C@H]2CCN(C(=O)CCN3CCCCC3)[C@H]12.Cl
# output 1
